- Tested on: PBMC of healthy adult blood donors from Colombo, Sri Lanka
- ASSAY: Ex vivo IFNγ ELISPOT, HLA-matched PBMC of Sri Lankan blood donors
- Assay type: cell-based, human
- MEASUREMENT_SETUP: number of donors responding to the epitope; restricting HLA allele and serotype as given
Ends that are not written are not given here.
# # donors responded values compiled below
Field format: numeric only.

These recorded examples may help you get a feel for the data.
>  <SEQUENCE_CHAIN>
GEFRLRGEQR

>  <# donors responded>
3

$$$$
>  <SEQUENCE_CHAIN>
KEGVFHTMW

>  <# donors responded>
1

$$$$
>  <SEQUENCE_CHAIN>
GAMLFLISGK

>  <# donors responded>
1

$$$$

Query :: # get_value(readout='# donors responded', item= `HPGAGKTKRY` )
Result :: 10

Query :: # get_value(readout='# donors responded', item= `ATGPITTLW` )
Result :: 1

---

- Test system: PBMC of healthy adult blood donors from Colombo, Sri Lanka
- ASSAY: Ex vivo IFNγ ELISPOT, HLA-matched PBMC of Sri Lankan blood donors
- Assay type: cell-based, human
- Parameters: unit not given here
- MEASUREMENT_SETUP: IFNγ ELISPOT response summed over responding donors, per epitope
Ends that are not written are not given here.
# Total Response per epitope values compiled below
Field format: numeric only.

These recorded examples may help you get a feel for the data.
>  <SEQUENCE_CHAIN>
MEITAEWLW

>  <TARGET_UNDER_TEST>
PBMC of healthy adult blood donors from Colombo, Sri Lanka

>  <READOUT_LABEL>
Total Response per epitope

>  <ASSAY_RESULT>
583.3

$$$$
>  <SEQUENCE_CHAIN>
QYIFTGQPL

>  <TARGET_UNDER_TEST>
PBMC of healthy adult blood donors from Colombo, Sri Lanka

>  <READOUT_LABEL>
Total Response per epitope

>  <ASSAY_RESULT>
138.3

$$$$
>  <SEQUENCE_CHAIN>
MVSRLLLNR

>  <TARGET_UNDER_TEST>
PBMC of healthy adult blood donors from Colombo, Sri Lanka

>  <READOUT_LABEL>
Total Response per epitope

>  <ASSAY_RESULT>
28.3

$$$$
>  <SEQUENCE_CHAIN>
LWEGSPGKF

>  <TARGET_UNDER_TEST>
PBMC of healthy adult blood donors from Colombo, Sri Lanka

>  <READOUT_LABEL>
Total Response per epitope

>  <ASSAY_RESULT>
25.0

$$$$

Query :: Item: `RPGYHTQTA` Test system: PBMC of healthy adult blood donors from Colombo, Sri Lanka Read-out: Total Response per epitope Value: ?
Result :: 501.7

---

- System: PBMC of healthy adult blood donors from Colombo, Sri Lanka
- ASSAY: Ex vivo IFNγ ELISPOT, HLA-matched PBMC of Sri Lankan blood donors
- Type: cell-based, human
- Set-up: unit not given here
- MEASUREMENT_SETUP: total over responding donors; restricting HLA allele and serotype as given
Ends that are not written are not given here.
Note to self: Total Response per epitope under 2000 means 1, ties and anything higher get -1.

The following sequences have reported results that may help.
>  <SEQUENCE_CHAIN>
FAGPVSQHNY

>  <TARGET_UNDER_TEST>
PBMC of healthy adult blood donors from Colombo, Sri Lanka

>  <CLASSIFICATION>
1

$$$$
>  <SEQUENCE_CHAIN>
HPGAGKTKRY

>  <TARGET_UNDER_TEST>
PBMC of healthy adult blood donors from Colombo, Sri Lanka

>  <CLASSIFICATION>
-1

$$$$
>  <SEQUENCE_CHAIN>
KEGVFHTMW

>  <TARGET_UNDER_TEST>
PBMC of healthy adult blood donors from Colombo, Sri Lanka

>  <CLASSIFICATION>
1

$$$$
>  <SEQUENCE_CHAIN>
FTILALFLAH

>  <TARGET_UNDER_TEST>
PBMC of healthy adult blood donors from Colombo, Sri Lanka

>  <CLASSIFICATION>
1

$$$$

Continue with the next sequence.
Query :: For this sequence, is Total Response per epitope lower than 2000? `GEGLHKLGY`
Result :: 1

---

# Total Response per epitope values compiled below
- System: PBMC of healthy adult blood donors from Colombo, Sri Lanka
- ASSAY: Ex vivo IFNγ ELISPOT, HLA-matched PBMC of Sri Lankan blood donors
- Assay type: cell-based, human
- Set-up: unit not given here
- MEASUREMENT_SETUP: IFNγ ELISPOT response summed over responding donors, per epitope
Ends that are not written are not given here.
Field format: numeric only.

>  <SEQUENCE_CHAIN>
KVLNPYMPSV

>  <Total Response per epitope>
63.3

$$$$
>  <SEQUENCE_CHAIN>
MAVGMVSIL

>  <Total Response per epitope>
361.7

$$$$
>  <SEQUENCE_CHAIN>
KVRKDIQQW

>  <Total Response per epitope>
38.3

$$$$

Query :: # get_value(readout='Total Response per epitope', item= `REDLWCGSL` )
Result :: 96.7

Query :: # get_value(readout='Total Response per epitope', item= `REIPERSWNT` )
Result :: 1278.3

Query :: # get_value(readout='Total Response per epitope', item= `YAQMWQLMYF` )
Result :: 135.0

Query :: # get_value(readout='Total Response per epitope', item= `NPEIEDDIF` )
Result :: 3390.0

Query :: # get_value(readout='Total Response per epitope', item= `REWCFTGERN` )
Result :: 1345.0

Query :: # get_value(readout='Total Response per epitope', item= `RAAVEDEEF` )
Result :: 381.7

Query :: # get_value(readout='Total Response per epitope', item= `IETTILDVDL` )
Result :: 1413.3

Query :: # get_value(readout='Total Response per epitope', item= MMATIGIAL [MMATIGIAL] )
Result :: 908.3

Query :: # get_value(readout='Total Response per epitope', item= `MLVTPSMTM` )
Result :: 1735.0

Query :: # get_value(readout='Total Response per epitope', item= `NPWMEDKTPV` )
Result :: 191.7

Query :: # get_value(readout='Total Response per epitope', item= `LPVWLAYKVA` )
Result :: 2426.7

Query :: # get_value(readout='Total Response per epitope', item= `RASFIEVKTC` )
Result :: 290.0

Query :: # get_value(readout='Total Response per epitope', item= `LPVWLAHKVA` )
Result :: 23.3

Query :: # get_value(readout='Total Response per epitope', item= `LMMILPAAL` )
Result :: 46.7

Query :: # get_value(readout='Total Response per epitope', item= `SPKRLATAIA` )
Result :: 68.3

Query :: # get_value(readout='Total Response per epitope', item= `TLMAMDLGEL` )
Result :: 823.3

Query :: # get_value(readout='Total Response per epitope', item= `MPVTVASAAQ` )
Result :: 51.7

Query :: # get_value(readout='Total Response per epitope', item= `RFLEFEALGF` )
Result :: 181.7
